experiment: Solubility of AB-250 in water, ethanol and aqueous alcohol; assay type: physicochemical; conditions: water of pH 5-7; read-out: solubility in water
RECORDED METRIC: solubility (µg/mL)
Reply with just the number (in µg/mL).

For the compound shown here, CCOc1ccccc1OCCNC(C)Cc1ccc(OC)c(S(N)(=O)=O)c1 (stereo not shown) , give the reported solubility.
4000

---

assay: Solubility of AB-250 in water, ethanol and aqueous alcohol; type: physicochemical; conditions: ethanol, organic solvent or mixture; read-out: solubility in ethanol
RECORDED METRIC: solubility (µg/mL)
Reply with just the number (in µg/mL).

For the molecule shown here, CCOc1ccccc1OCCNC(C)Cc1ccc(OC)c(S(N)(=O)=O)c1 (stereo not shown) [AB-250] , give the reported solubility.
300
